Test system: large crabgrass (Digitaria sanguinalis)
Assay: Test A pre-/postemergence plant response
Format: in vivo
Settings: Preemergence, 125 g ai/ha; 0 to 100 scale (0 no effect, 100 complete control)
// assign Met if Plant response rating, Crabgrass, Large falls strictly below 80, else Not met (ties count as Not met)

# example entries with known answers
Compound	Cat
CCn1ncc(O)c(-c2cn(-c3ccc(Cl)cc3)nc2C)c1=O	Met
Cc1nc(-c2ccc(Cl)cc2)nn1-c1c(O)cnn(C)c1=O	Met
CCc1cc(-c2ccc(C(F)(F)F)cc2)nn1-c1c(O)c(C)nn(C)c1=O	Not met
Cc1cc(-c2ccc(Cl)cc2)nn1-c1c(OC(=O)c2cccs2)cnn(C)c1=O	Not met
Cc1cc(-c2ccc(Br)cc2)nn1-c1c(OC(=O)C2CC2)cnn(C)c1=O	Not met
Cc1cc(-c2ccc(Cl)cc2)nn1-c1c(OC(=O)CC(C)C)cnn(C)c1=O	Not met
CCCc1cc(-c2ccc(Cl)cc2)nn1-c1c(O)cnn(C)c1=O [Compound 43]	Not met
Cc1cc(-c2ccc(Cl)cc2)nn1-c1c(OC(=O)c2ccccc2Cl)cnn(C)c1=O	Not met

Read the next record carefully.
Does this compound meet the criterion Plant response rating, Crabgrass, Large < 80? "CCc1cc(-c2ccc(Cl)c(Cl)c2)nn1-c1c(OC(=O)OC(C)C)cnn(C)c1=O"
Met

====

Test system: ducksalad (Heteranthera limosa)
Assay: Test B flooded paddy test plant response
Assay type: in vivo
Conditions: Flood (flooded paddy test), 250 g ai/ha; scale 0 to 100, 0 no effect, 100 complete control
Plant response rating, Ducksalad overview
Please reply with the value in numeric form only.

Answered cases to consult:
Compound Smiles	Target System	Plant response rating, Ducksalad
CCc1cc(-c2ccc(Br)cc2)nn1-c1c(O)cnn(CC(F)(F)F)c1=O	ducksalad (Heteranthera limosa)	0
Cc1cc(-c2ccc(Br)cc2)nn1-c1c(OC(=O)C2CC2)cnn(C)c1=O	ducksalad (Heteranthera limosa)	65
Cc1nn(C)c(=O)c(-n2nc(-c3ccc(Cl)cc3)cc2Cl)c1O	ducksalad (Heteranthera limosa)	20
CCOC(=O)Oc1cnn(C)c(=O)c1-n1nc(-c2ccc(Cl)cc2)cc1C	ducksalad (Heteranthera limosa)	50
CCc1cc(-c2ccc(Cl)cc2)nn1-c1c(O)c(C)nn(C)c1=O	ducksalad (Heteranthera limosa)	65
Cc1cc(-c2ccc(Cl)cc2)nn1-c1c(OC(=O)c2cccs2)cnn(C)c1=O	ducksalad (Heteranthera limosa)	0

The compound listed as "Cc1nc(-c2ccc(Cl)cc2)nn1-c1c(O)cnn(C)c1=O" shows Plant response rating, Ducksalad equal to 95

The compound listed as "Cc1cc(-c2ccc(Cl)cc2)nn1-c1c(OS(=O)(=O)C2CC2)cnn(C)c1=O" shows Plant response rating, Ducksalad equal to 0

The compound listed as "Cc1ccc(-c2ccc(Cl)cc2)cc1-c1c(O)cnn(C)c1=O" shows Plant response rating, Ducksalad equal to 85

====

Test system: blackgrass (Alopecurus myosuroides)
Experiment: Test B pre-/postemergence plant response
Format: in vivo
Conditions: Postemergence, 31 g ai/ha; scale 0 to 100, 0 no effect, 100 complete control
Plant response rating, Blackgrass overview

Answered cases to consult:
Compound Smiles	Measured Result
Cc1cc(-c2ccc(Br)cc2)nn1-c1c(OC(=O)C2CC2)cnn(C)c1=O	95
Cc1cc(-c2ccc(C(F)(F)F)c(F)c2)nn1-c1c(O)c(C(F)(F)F)nn(C)c1=O	98
CCCc1cc(-c2ccc(Cl)cc2)nn1-c1c(O)cnn(C)c1=O	95

Below: the item to evaluate.
The compound listed as "CCc1cc(-c2ccc(C(F)(F)F)cc2)nn1-c1c(O)c(C)nn(C)c1=O" shows Plant response rating, Blackgrass equal to 98

====

Plant response rating, Bromegrass, Downy overview
Tested on: downy bromegrass (Bromus tectorum)
Assay: Test B pre-/postemergence plant response
Format: in vivo
Conditions: Preemergence, 31 g ai/ha; scale 0 to 100 (0 no effect, 100 complete control)
Please reply with the value in numeric form only.

Answered cases to consult:
Compound Smiles	Plant response rating, Bromegrass, Downy
CCc1cc(-c2ccc(C(F)(F)F)cc2)nn1-c1c(O)c(OC)nn(C)c1=O	100
CCCC(=O)Oc1cnn(C)c(=O)c1-n1nc(-c2ccc(Cl)cc2)cc1C	45
CCCc1cc(-c2ccc(C(F)(F)F)cc2)nn1-c1c(O)cnn(C)c1=O	50

Below: the item to evaluate.
The molecule listed as "CCc1c(C)c(-c2ccc(Br)cc2)nn1-c1c(O)cnn(C)c1=O" shows Plant response rating, Bromegrass, Downy equal to 20

====

Test system: large crabgrass (Digitaria sanguinalis)
Experiment: Test B pre-/postemergence plant response
Assay type: in vivo
Settings: Postemergence, 16 g ai/ha; scale 0 to 100
Reported Endpoint: Plant response rating, Crabgrass, Large
Please reply with the value in numeric form only.

Answered cases to consult:
Compound Smiles	Target System	Plant response rating, Crabgrass, Large
Cc1cc(-c2ccc(Cl)cc2)nn1-c1c(OC(=O)Oc2ccccc2)cnn(C)c1=O	large crabgrass (Digitaria sanguinalis)	85
CCc1cc(-c2ccc(Cl)cc2)nn1-c1c(O)cnn(C)c1=O	large crabgrass (Digitaria sanguinalis)	100
CCc1cc(-c2ccc(C(F)(F)F)cc2)nn1-c1c(OC(=O)OC(C)C)cnn(C)c1=O	large crabgrass (Digitaria sanguinalis)	100
CCCc1cc(-c2ccc(C(F)(F)F)cc2)nn1-c1c(O)cnn(C)c1=O	large crabgrass (Digitaria sanguinalis)	100

Below: the item to evaluate.
The compound listed as "Cc1cc(-c2ccc(Cl)cc2)nn1-c1c(OC(=O)c2ccccc2Cl)cnn(C)c1=O" shows Plant response rating, Crabgrass, Large equal to 70

====

Plant response rating, Blackgrass overview
Tested on: blackgrass (Alopecurus myosuroides)
Test: Test A pre-/postemergence plant response
Assay type: in vivo
Details: Postemergence, 125 g ai/ha; 0 to 100 scale, 0 no effect, 100 complete control
Source text: […] Plants ranged in height from 2 to 10 cm and were in the one- to two-leaf stage for the postemergence treatment. Treated plants and untreated controls were maintained in a greenhouse for approximately 10 days, after which time all treated plants were compared to untreated controls and visually evaluated for injury. […]
Please reply with the value in numeric form only.

Compound Smiles	Reported Endpoint	Measured Result
Cc1nn(C)c(=O)c(-c2nc(-c3ccc(Cl)cc3)sc2C)c1O	Plant response rating, Blackgrass	100
CCc1cc(-c2ccc(Br)cc2)nn1-c1c(O)cnn(CC(F)(F)F)c1=O	Plant response rating, Blackgrass	90
CCc1cc(-c2ccc(Br)cc2)nn1-c1c(O)c(C)nn(C)c1=O	Plant response rating, Blackgrass	100

Below: the item to evaluate.
The compound listed as "Cn1ncc(O)c(-c2nn(-c3ccc(C(F)(F)F)cc3)cc2Br)c1=O" shows Plant response rating, Blackgrass equal to 80

====

Tested on: wheat (Triticum aestivum)
Test: Test B pre-/postemergence plant response
Type: in vivo
Conditions: Postemergence, 31 g ai/ha; scale 0 to 100
Description: […] Plant species in the flooded paddy test consisted of rice (Oryza sativa), umbrella sedge (Cyperus difformis), ducksalad (Heteranthera limosa) and barnyardgrass (Echinochloa crus-galli) grown to the 2-leaf stage for testing. […] Treated plants and controls were maintained in a greenhouse for 13 to 15 days, after which time all species were compared to controls and visually evaluated. […]
Reported Endpoint: Plant response rating, Wheat

Compound Smiles	Reported Endpoint	Measured Result
CCc1cc(-c2ccc(Br)cc2)nn1-c1c(O)c(C)nn(C)c1=O	Plant response rating, Wheat	90
CCc1cc(-c2ccc(Br)cc2)nn1-c1c(O)cnn(CC(F)(F)F)c1=O	Plant response rating, Wheat	90
COc1nn(C)c(=O)c(-n2nc(-c3ccc(Br)cc3)cc2C)c1O	Plant response rating, Wheat	100

Below: the item to evaluate.
The molecule listed as "CCCc1cc(-c2ccc(C(F)(F)F)cc2)nn1-c1c(O)cnn(C)c1=O" shows Plant response rating, Wheat equal to 85

====

Tested on: corn (Zea mays)
Test: Test A pre-/postemergence plant response
Assay type: in vivo
Settings: Postemergence, 31 g ai/ha; 0 to 100 scale, 0 no effect, 100 complete control
From the text: […] Plants ranged in height from 2 to 10 cm and were in the one- to two-leaf stage for the postemergence treatment. Treated plants and untreated controls were maintained in a greenhouse for approximately 10 days, after which time all treated plants were compared to untreated controls and visually evaluated for injury. […]
Plant response rating, Corn overview

Compound Smiles	Target System	Plant response rating, Corn
COc1nn(C)c(=O)c(-n2nc(-c3ccc(Br)cc3)cc2C)c1O	corn (Zea mays)	80
Cc1cc(-c2ccc(Cl)cc2)nn1-c1c(OC(=O)Oc2ccccc2)cnn(C)c1=O	corn (Zea mays)	40

The compound listed as "Cc1cc(-c2ccc(Cl)cc2)nn1-c1c(OC(=O)c2cccs2)cnn(C)c1=O" shows Plant response rating, Corn equal to 30

The compound listed as "Cc1cc(-c2ccc(Cl)cc2)nn1-c1c(OC(=O)N(C)C)cnn(C)c1=O" shows Plant response rating, Corn equal to 0

The compound listed as "CCc1cc(-c2ccc(C(F)(F)F)cc2)nn1-c1c(O)c(OC)nn(C)c1=O" shows Plant response rating, Corn equal to 100

The compound listed as "Cc1cc(-c2ccc(Cl)cc2)nn1-c1c(OS(=O)(=O)c2ccccc2)cnn(C)c1=O" shows Plant response rating, Corn equal to 0

The compound listed as "Cc1cc(-c2ccc(Cl)cc2)nn1-c1c(OS(=O)(=O)c2ccc(Cl)s2)cnn(C)c1=O" shows Plant response rating, Corn equal to 0
